- assayNotes: self-splicing fitness, log relative to wild type (ln ratio); higher = more splicing; Tetrahymena group I intron in knt gene, E. coli kanamycin selection, DiMSum; sequences stand for … in CUCUCU…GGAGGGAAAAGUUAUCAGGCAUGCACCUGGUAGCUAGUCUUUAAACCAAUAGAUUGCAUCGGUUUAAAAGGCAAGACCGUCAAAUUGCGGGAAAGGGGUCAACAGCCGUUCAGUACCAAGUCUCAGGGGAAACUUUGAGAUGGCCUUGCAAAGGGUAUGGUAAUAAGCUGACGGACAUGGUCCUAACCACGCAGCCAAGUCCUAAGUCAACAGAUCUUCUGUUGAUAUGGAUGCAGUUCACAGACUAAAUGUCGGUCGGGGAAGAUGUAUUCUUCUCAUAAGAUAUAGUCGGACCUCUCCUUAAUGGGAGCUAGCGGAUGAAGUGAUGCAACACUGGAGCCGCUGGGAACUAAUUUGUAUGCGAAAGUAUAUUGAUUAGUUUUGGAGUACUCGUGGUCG;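 also: selection with 25 µg/mL kanamycin versus none on LB agar overnight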
- experimentalParameters: 37 °C
valueKind: self-splicing fitness (ln)
I only need the number, thanks.

INPUT: Record request: self-splicing fitness (ln) value, item CUAAAGCAAUAUUACGGCAG
OUTPUT: -0.422

INPUT: Record request: self-splicing fitness (ln) value, item AGAUAGCAAUAUUACGAAUG
OUTPUT: -1.32

INPUT: Record request: self-splicing fitness (ln) value, item AUUAAGCAAUAUUACGACUA
OUTPUT: -0.207

INPUT: Record request: self-splicing fitness (ln) value, item CGUCAGCAAUAUUACGAUAG
OUTPUT: -0.11

INPUT: Record request: self-splicing fitness (ln) value, item UAAAAGCAAUAUUACGUCCC
OUTPUT: -0.909

INPUT: Record request: self-splicing fitness (ln) value, item AUGUAGCAAUAUUACGUCGU
OUTPUT: -0.241

INPUT: Record request: self-splicing fitness (ln) value, item UCGCAGCAAUAUUACGGCGA
OUTPUT: -3

INPUT: Record request: self-splicing fitness (ln) value, item CGUGAGCAAUAUUACGGCUU
OUTPUT: -3.81

INPUT: Record request: self-splicing fitness (ln) value, item GACAAGCAAUAUUACGAUAC
OUTPUT: -1.28

INPUT: Record request: self-splicing fitness (ln) value, item ACAUAGCAAUAUUACGGAGU
OUTPUT: -2.55

INPUT: Record request: self-splicing fitness (ln) value, item AUCGAGCAAUAUUACGGUAU
OUTPUT: -1.12

INPUT: Record request: self-splicing fitness (ln) value, item UGCCAGCAAUAUUACGUAAG
OUTPUT: -1.24

INPUT: Record request: self-splicing fitness (ln) value, item GUCUAGCAAUAUUACGGCCG
OUTPUT: -1.78

INPUT: Record request: self-splicing fitness (ln) value, item CCAUAGCAAUAUUACGACCU
OUTPUT: -1.28

INPUT: Record request: self-splicing fitness (ln) value, item AGACAGCAAUAUUACGUUUU
OUTPUT: -3.77

INPUT: Record request: self-splicing fitness (ln) value, item UAUCAGCAAUAUUACGGGCG
OUTPUT: 0.684

INPUT: Record request: self-splicing fitness (ln) value, item GGCCAGCAAUAUUACGUCCG
OUTPUT: -0.963

INPUT: Record request: self-splicing fitness (ln) value, item CAGCAGCAAUAUUACGGAAG
OUTPUT: -0.29

INPUT: Record request: self-splicing fitness (ln) value, item ACCAAGCAAUAUUACGUCUU
OUTPUT: -2.59

INPUT: Record request: self-splicing fitness (ln) value, item ACUUAGCAAUAUUACGAUUC
OUTPUT: -0.823

INPUT: Record request: self-splicing fitness (ln) value, item UGGAAGCAAUAUUACGUAAU
OUTPUT: -0.953
